// data source = ChEMBL document CHEMBL1136764

In this section, each of the compounds is paired with its reported Displacement.
# target desc: Adenosine receptor A2a (Homo sapiens, UniProt P29274)
# Sequence (P29274 whole entry): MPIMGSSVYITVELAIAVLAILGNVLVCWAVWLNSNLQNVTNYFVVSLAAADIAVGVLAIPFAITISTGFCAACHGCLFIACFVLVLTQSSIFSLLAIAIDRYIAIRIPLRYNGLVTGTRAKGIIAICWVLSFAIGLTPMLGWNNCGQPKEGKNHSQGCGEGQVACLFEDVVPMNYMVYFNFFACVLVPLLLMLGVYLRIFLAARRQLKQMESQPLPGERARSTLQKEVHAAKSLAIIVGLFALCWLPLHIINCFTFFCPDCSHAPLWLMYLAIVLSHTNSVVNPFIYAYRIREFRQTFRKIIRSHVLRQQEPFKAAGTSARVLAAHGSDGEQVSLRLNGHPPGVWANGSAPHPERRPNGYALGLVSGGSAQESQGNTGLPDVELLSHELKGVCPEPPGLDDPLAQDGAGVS
# run description: Percent displacement of [3H]ZM-241,385 from human adenosine A2A receptor at 10 uM

compound | unit | Displacement
Nc1nc(/N=N/NC(=O)Oc2ccccc2)nc2c1ncn2C1O[C@H](CO)[C@@H](O)[C@H]1O (some centres undefined) | % | 38.9
NC(=O)/N=N/Nc1nc(Nc2ccccc2)c2ncn([C@@H]3O[C@H](CO)[C@@H](O)[C@H]3O)c2n1 | % | 17.7
Nc1nc(/N=N/NC(=O)Nc2cccc(Cl)c2)nc2c1ncn2C1O[C@H](CO)[C@@H](O)[C@H]1O (some centres undefined) | % | 29.9
Nc1nc(/N=N/NC(=O)Nc2ccc(Cl)cc2)nc2c1ncn2[C@@H]1O[C@H](CO)[C@@H](O)[C@H]1O | % | 4.4
